# experimental_system: p300 HAT domain (residues 1287-1666) (Homo sapiens (Human), UniProt Q09472)
# Sequence (Q09472 1287-1666): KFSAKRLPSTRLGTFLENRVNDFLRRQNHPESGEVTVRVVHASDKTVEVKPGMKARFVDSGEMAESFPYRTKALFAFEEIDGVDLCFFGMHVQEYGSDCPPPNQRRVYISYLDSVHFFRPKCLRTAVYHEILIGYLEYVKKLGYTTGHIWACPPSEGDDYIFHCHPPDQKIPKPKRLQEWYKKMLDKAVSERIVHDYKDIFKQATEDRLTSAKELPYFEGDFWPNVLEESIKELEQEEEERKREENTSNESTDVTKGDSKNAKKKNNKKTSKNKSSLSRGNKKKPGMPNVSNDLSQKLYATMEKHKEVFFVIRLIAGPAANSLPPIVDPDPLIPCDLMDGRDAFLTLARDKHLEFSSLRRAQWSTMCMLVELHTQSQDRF
Provide the recorded IC50 for the entries that follow.
Give bare numbers, in nM.

// known answers, use as guide
compound="N#Cc1ccc(CCNC(C(=O)Nc2ccc(C3CC3)cn2)c2ccccc2)cc1 (single isomer, unassigned) [42 Isomer 1]" measurement_units=nM readout_number=53.6
compound="Cn1cc(-c2ccc(NC(=O)C(NCCc3ccc(C#N)cc3)c3ccccc3)cc2Cl)cn1 (single isomer, unassigned) [27 Isomer 1]" measurement_units=nM readout_number=576

--- query ---
[Q] Report IC50 on p300 HAT domain (residues 1287-1666) (Homo sapiens (Human), UniProt Q09472) for this entry: CC(CNC(C(=O)Nc1ccc(N2CCN(C)S2(=O)=O)cn1)c1ccccc1)c1ccc(C#N)cc1 (single isomer, unassigned) [108 Isomer 2]
[A] 23.7

====

# experimental_system: p300 HAT domain (residues 1287-1666) (Homo sapiens (Human), UniProt Q09472)
pIC50: −log10 of the molar value.
Record t whenever pIC50 is at 7 or higher; record f when lower.

Study these solved cases before continuing.
compound="Cn1cc(-c2ccc(NC(=O)C(NCCc3ccc(C#N)cc3F)c3ccccc3)nc2)cn1 (single isomer, unassigned) [29 Isomer 1]" assigned_category=t
compound="Cc1cn(-c2ccc(NC(=O)[C@@H](NCCc3ccc(Cl)cc3)c3ccccc3)cc2)cn1 (single isomer, unassigned) [16 Isomer 2]" assigned_category=f
compound="Cc1noc(C)c1-c1ccc(NC(=O)C(NC[C@@H](C)c2ccc(C#N)cc2)c2ccccc2)nc1 (single isomer, unassigned) [131 Isomer 2]" assigned_category=t
compound="CC1CN(c2ccc(NC(=O)C(NC[C@@H](C)c3ccc(C#N)cc3)c3ccccc3)nc2)CC(=O)N1C (single isomer, unassigned) [124 Isomer 2]" assigned_category=f

[Q] Please check the record CC(CNC(C(=O)Nc1ccc(-c2cn(C)nn2)cn1)c1ccccc1)c1ccc(C#N)cc1 (single isomer, unassigned) [100 Isomer 3] and state if its pIC50 is at or above 7.
[A] f

[Q] Textbook exercise: given the entry Cn1cc(-c2ccc(NC(=O)C(NCCc3ccc(C#N)cc3Cl)c3ccccc3)nc2)cn1 (single isomer, unassigned) [51 Isomer 2] , state whether its pIC50 is greater than or equal to 7.
[A] f

[Q] Record Cc1ccn(-c2ccc(NC(=O)C(NCC(C)c3ccc(C#N)cc3)c3ccccc3)nc2)n1 (single isomer, unassigned) [61 Isomer 2] ; criterion: pIC50 no lower than 7. Met?
[A] f

[Q] hey, is pIC50 for this one >= 7? CC1C(=O)N(C)CCN1c1ccc(NC(=O)C(NC[C@@H](C)c2ccc(C#N)cc2)c2ccccc2)nc1 (single isomer, unassigned) [126 Isomer 4]
[A] t

[Q] Does the reported pIC50 for CC1C(=O)N(C)CCN1c1ccc(NC(=O)C(NC[C@@H](C)c2ccc(C#N)cc2)c2ccccc2)nc1 (single isomer, unassigned) [126 Isomer 2] fall at or above the 7 mark?
[A] f

[Q] Quick check, pIC50 >= 7? Cn1cc(-c2ncc(NC(=O)C(NCCc3ccc(C#N)cc3)c3ccccc3)cn2)cn1 (single isomer, unassigned) [23 Isomer 1]
[A] f

[Q] Assess whether reported pIC50 for Cn1cc(-c2ccc(NC(=O)[C@@H](NCCc3ccc(Cl)cc3)c3ccccc3)cc2)cn1 (single isomer, unassigned) [5 Isomer 2] sits at 7 or higher.
[A] f
